tested.system: T1, human beta CGRP (SEQ ID NO: 81) (human, not fully specified)
T1 peptide: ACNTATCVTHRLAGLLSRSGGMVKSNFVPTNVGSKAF
test.protocol: cell-based or functional assay
Would you please tag the item met when its cAMP assay IC50, SK-N-MC cells is 0.3 nM or above, and not met when it is below?

INSERT INTO results (binder, category) VALUES
  ('lipocalin mutein SEQ ID NO: 17 (designed binder, biotinylated by NHS chemistry for capture in SPR) QDSTSDLIPAPPLSKVPLQQNFQDNQFHGKWYVVGRAGNDVLREDKDPEKMEATIYELKEDKSYNVTDVGFVQKRCMYVTHTFVPGSQPGEFTLGNIESYPGVTSALVRVVSTDYNQHAMVFVKLVKQNRELFEITLYGRTKELTSELKENFIRFSKSLGLPENHIVFPVPIDQCIDGSAWSHPQFEK', 'not met'),
  ('cysteine-free lipocalin mutein SEQ ID NO: 34 (designed binder, biotinylated by NHS chemistry for capture in SPR) QDSTSDLIPAPPLSKVPLQQNFQDNQFQGKWYVVGWAGNTLLREDKDPIKMQAMIYELKEDKSYNVTWVYFADKKINYHIETFVPGSQPGEFTLGTIKSYPGETPILVRVVSTNYNQHAMVFFKGVNQNREIFEIVLYGRTKELTNELKENFIRFSKSLGLPENHIVFPVPIDQEIDGSAWSHPQFEK', 'not met'),
  ('cysteine-free lipocalin mutein SEQ ID NO: 36 (designed binder, biotinylated by NHS chemistry for capture in SPR) QDSTSDLIPAPPLSKVPLQQNFQDNQFQGKWYVVGWAGNTLLREDKDPIKMQAMIYELKEDKSYNVTWVYFADKKRNYHIETFVPGSQPGEFTLGTIKSYPGETPILVRVVSTNYNQHAMVFFKGVNQNREIFEIVLYGRTKELTNELKENFIRFSKSLGLPENHIVFPVPIDQWIDGSAWSHPQFEK', 'met'),
  ('cysteine-free lipocalin mutein SEQ ID NO: 39 (designed binder, biotinylated by NHS chemistry for capture in SPR) QDSTSDLIPAPPLSKVPLQQNFQDNQFQGKWYVVGWAGNTLLREDKDPIKMQAMIYELKEDKSYNVTWVYFADKKKNYHIETFVPGSQPGEFTLGTIKSYPGETPILVRVVSTNYNQHAMVFFKGVNQNREIFEIVLYGRTKELTNELKENFIRFSKSLGLPENHIVFPVPIDQDIDGSAWSHPQFEK', 'met'),
  ('cysteine-free lipocalin mutein SEQ ID NO: 38 (designed binder, biotinylated by NHS chemistry for capture in SPR) QDSTSDLIPAPPLSKVPLQQNFQDNQFQGKWYVVGWAGNTLLREDKDPIKMQAMIYELKEDKSYNVTWVYFADKKRNYHIETFVPGSQPGEFTLGTIKSYPGETPILVRVVSTNYNQHAMVFFKGVNQNREIFEIVLYGRTKELTNELKENFIRFSKSLGLPENHIVFPVPIDQVIDGSAWSHPQFEK', 'met');

# check: cAMP assay IC50, SK-N-MC cells of cysteine-free lipocalin mutein SEQ ID NO: 35 (designed binder, biotinylated by NHS chemistry for capture in SPR) QDSTSDLIPAPPLSKVPLQQNFQDNQFQGKWYVVGWAGNTLLREDKDPIKMQAMIYELKEDKSYNVTWVYFADKKVNYHIETFVPGSQPGEFTLGTIKSYPGETPILVRVVSTNYNQHAMVFFKGVNQNREIFEIVLYGRTKELTNELKENFIRFSKSLGLPENHIVFPVPIDQYIDGSAWSHPQFEK is greater than or equal to 0.3 nM
not met
